Source listed as the NIST ThermoML archive (doi:10.1016/j.jct.2012.06.009).

Quick reference for activity coefficient among some compounds
measurementProtocol: activity coefficient (dimensionless); of the first substance listed, at infinite dilution; xn = mol fraction of the nth substance listed
measurementContext: 333.38 K; 101 kPa; Liquid; Chromatography; x1 = 0
Lab note: jot down the number only; don't add units.

Worked examples, 5 compounds total:
CCC(C)O (stereo unspecified) [butan-2-ol] + CCCCCCCCCC(=O)O | 1.16
CCO [ethanol] + CCCCCCCCCCCC(=O)O | 1.79
Cc1ccccc1 [toluene] + CCCCCCCCCC(=O)O | 1.12
Clc1ccccc1 [chlorobenzene] + CCCCCCCCCCCCCC(=O)O | 0.982
CCC(C)O (stereo unspecified) [butan-2-ol] + CCCCCCCCCCCC(=O)O | 1.17

Here is the next item to consider.
For the compound CCCCO [butan-1-ol] + CCCCCCCCCCCC(=O)O , give its reported activity coefficient. 1.51

---

Reported activity coefficient values follow for various molecules
measurementProtocol: activity coefficient (dimensionless); of the first substance listed, at infinite dilution; xn = mol fraction of the nth substance listed
measurementContext: 333.38 K; 101 kPa; Liquid; Chromatography; x1 = 0
Keep the answer to the number alone.

Example results:
Cc1ccccc1 [toluene] + CCCCCCCCCCCC(=O)O | 1.04
CCOC(C)=O [ethyl acetate] + CCCCCCCCCC(=O)O | 1.3
CC(C)=O [acetone] + CCCCCCCCCCCC(=O)O | 1.47
CCCO [propan-1-ol] + CCCCCCCCCC(=O)O | 1.6
C1CCCCC1 [cyclohexane] + CCCCCCCCCCCCCC(=O)O | 1.07

Now consider the entry below.
Return reported activity coefficient. Input molecule: ClC=C(Cl)Cl [trichloroethene] + CCCCCCCCCC(=O)O 1.01

---

The reader will find reported activity coefficient values listed item by item below.
measurementProtocol: activity coefficient (dimensionless); of the first substance listed, at infinite dilution; xn = mol fraction of the nth substance listed
measurementContext: 358.22 K; 101 kPa; Liquid; Chromatography; x1 = 0
Response field accepts a number only; no unit should be typed.

Before answering, review these 2 worked examples.
CCc1ccccc1 [ethylbenzene] + CCCCCCCCCCCCCCCC(=O)O | 1.06
ClCCCl [1,2-dichloroethane] + CCCCCCCCCCCCCCCC(=O)O | 1.14

Next item in the queue.
State, in one line, measured activity coefficient of CCCCCCC [heptane] + CCCCCCCCCCCCCCCC(=O)O 1.37

---

measurementProtocol: activity coefficient (dimensionless); of the first substance listed, at infinite dilution; xn = mol fraction of the nth substance listed
measurementContext: 353.25 K; 101 kPa; Liquid; Chromatography; x1 = 0
# activity coefficient listing for each entry below
The reply should be a number, written without any unit.

CCOC(C)=O [ethyl acetate] + CCCCCCCCCCCC(=O)O | 1.2
C1CCCCC1 [cyclohexane] + CCCCCCCCCCCCCC(=O)O | 1.05
CC(C)=O [acetone] + CCCCCCCCCCCC(=O)O | 1.33
CCCO [propan-1-ol] + CCCCCCCCCCCCCC(=O)O | 1.37
CCCCCCC [heptane] + CCCCCCCCCCCC(=O)O | 1.59
CCC(C)O (centres undefined) [butan-2-ol] + CCCCCCCCCCCC(=O)O | 1.06

State its activity coefficient for this compound: Clc1ccccc1 [chlorobenzene] + CCCCCCCCCCCC(=O)O 1.07

Identify measured activity coefficient corresponding to Cc1ccccc1 [toluene] + CCCCCCCCCC(=O)O 1.14

Return activity coefficient for the following compound: CCc1ccccc1 [ethylbenzene] + CCCCCCCCCCCC(=O)O 1.18

Supply measured activity coefficient of CC(C)CC(C)(C)C [2,2,4-trimethylpentane] + CCCCCCCCCCCC(=O)O in your reply. 1.67

Please list activity coefficient recorded for the compound ClCCCl [1,2-dichloroethane] + CCCCCCCCCCCCCC(=O)O 1.13

Name the recorded activity coefficient of the compound listed here: Clc1ccccc1 [chlorobenzene] + CCCCCCCCCCCCCC(=O)O 0.979

Specify measured activity coefficient for COc1ccccc1 [anisole] + CCCCCCCCCCCC(=O)O . 1.33

Please supply the value of reported activity coefficient for the item CCCO [propan-1-ol] + CCCCCCCCCC(=O)O 1.41

Please supply the value of reported activity coefficient for the item C1CCCCC1 [cyclohexane] + CCCCCCCCCC(=O)O 1.35

Specify reported activity coefficient for the compound shown: CCCCCCC [heptane] + CCCCCCCCCCCCCC(=O)O 1.4

Please give measured activity coefficient of the following entry: ClCc1ccccc1 [(chloromethyl)benzene] + CCCCCCCCCCCCCC(=O)O 1.57

Determine from records and report activity coefficient for CCC(C)O (centres undefined) [butan-2-ol] + CCCCCCCCCC(=O)O 1.05

Return value of activity coefficient for input CCCCCC [hexane] + CCCCCCCCCCCC(=O)O , no commentary. 1.5
